# Tested on: primary human hepatic stellate cells (donor 1)
# Protocol Notes: scaled lipid accumulation score (0 = DMSO-like, 1 = nortriptyline-like); higher = stronger HSC inactivation (lipid re-accumulation), active = hit call of the paper
# Experimental Parameters: library stock concentration: 3.33 mM; 48 h
Where a name gives a salt, the structure may show the parent alone. Out of some 5,800 compounds screened, about 620 (11%) showed activity.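 The calls were made as follows: active = score above a cut-off or among the top three wells of a plate; in these data no inactive exceeds 0.85.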 Many of the other results were omitted from the sample, so actives are more common in it than they were.
Output constraint: value belongs to YES for active, NO for inactive

Illustrative cases are given below, each with its answer.
INSERT INTO results (molecule, group) VALUES
  ('CN(C)CCOC(=O)COc1ccc(Cl)cc1 [Meclofenoxate (Centrophenoxine) HCl]', 'NO'),
  ('CCCCCCCCCCCCCCCCn1cc[n+](Cc2ccccc2)c1C [eEF-2 Kinase Inhibitor, NH125]', 'NO'),
  ('CCOC(=O)N1CCC(=C2c3ccc(Cl)cc3CCc3cccnc32)CC1 [Loratadine]', 'NO'),
  ('OCCOc1ccc(/C(=C(/CCCl)c2ccccc2)c2ccccc2)cc1 [Ospemifene]', 'NO'),
  ('CCCCCCCCCCCCCCCCn1cc[n+](Cc2ccccc2)c1C.[I-]', 'YES');

Hi, do you know how Cc1ccc(C(=O)Nc2ccc(CN3CCN(C)CC3)c(C(F)(F)F)c2)cc1C#Cc1cnc2[nH]ncc2c1 came out in this test?
NO

Hi, do you know how NC(=O)c1cnc(N[C@@H]2CCCC[C@@H]2N)nc1Nc1cccc(-n2nccn2)c1 came out in this test?
NO

Hi, do you know how Oc1nc(-c2ccc(C(F)(F)F)cc2)nc2c1CSCC2 came out in this test?
NO

====

# Test system: primary human hepatic stellate cells (donor 1)
# Protocol Notes: scaled lipid accumulation score (0 = DMSO-like, 1 = nortriptyline-like); higher = stronger HSC inactivation (lipid re-accumulation), active = hit call of the paper
# Experimental Parameters: library stock concentration: 3.33 mM; 48 h
Where a name gives a salt, the structure may show the parent alone. About 620 (11%) of roughly 5,800 compounds showed activity. The sample as a whole holds a higher share of actives than the screen did.
Value Kind: scaled lipid accumulation score

Recorded scaled lipid accumulation score, per entry:
INSERT INTO measurements (compound, value_kind, test_result) VALUES
  ('O=C(O)C(Cc1c[nH]c2ccccc12)N1C(=O)c2ccccc2C1=O (stereo unspecified)', 'scaled lipid accumulation score', '≤ 0 (inactive)'),
  ('Cc1csc(-c2nnc(Nc3ccc(Oc4ncccc4-c4ccnc(N)n4)cc3)c3ccccc23)c1', 'scaled lipid accumulation score', '≤ 0 (inactive)');

Go through the items and report each one's scaled lipid accumulation score.
1. CC(C)c1noc(N2CCC(COc3ccc(-c4ccc(S(C)(=O)=O)cc4)nc3)CC2)n1
2. C#C[C@]1(O)CC[C@H]2[C@@H]3CCC4=CC(=O)CC[C@@H]4[C@H]3CC[C@@]21CC [Levonorgestrel]
3. CC(C)(Cc1ccc2ccccc2c1)NC[C@@H](O)COc1cccc(Cl)c1C#N
4. Cc1cc(C)c(/C=C2\C(=O)Nc3ccccc32)[nH]1 [Semaxanib (SU5416)]
5. NC1(Cc2ccc(Cl)cc2)CCN(c2ncnc3[nH]ccc23)CC1
6. O=C(O)Cn1nnc(-c2cc(N3CCC(Oc4cc(F)ccc4Br)CC3)no2)n1
7. OC(CCCN1CCCCC1)(c1ccccc1)c1ccccc1 [Diphenidol HCl]
8. Cc1cc(NC(=O)Nc2ccc(N(C)C)cc2)c2cc(F)cc(F)c2n1

1. 0.019 (inactive)
2. ≤ 0 (inactive)
3. 0.524 (inactive)
4. ≤ 0 (inactive)
5. 0.47 (inactive)
6. ≤ 0 (inactive)
7. ≤ 0 (inactive)
8. 0.007 (inactive)

// fetch scaled lipid accumulation score; item: COc1cc2ncn(-c3cc(OCc4ccccc4S(C)(=O)=O)c(C#N)s3)c2cc1OC [IKK-3 Inhibitor IX] ; system: primary human hepatic stellate cells (donor 1)
≤ 0 (inactive)

Where do the numbers come from? From the supplement of paper PMC9135407.
